inhibition at 10 µM values, listed per item
test_system: recombinant mTOR (Homo sapiens (Human))
assay_overview: mTOR kinase assay (33P incorporation into 4EBP1)
Type: biochemical
protocol_conditions: compound at 10 μM, 10 μM ATP
Report only the number, with the unit % understood.

CSc1cnc(-c2ccc(NC(=O)Nc3cccc(NC(C)=O)c3)cc2)nc1N1CCOCC1 97
CCOc1c(C(=O)NCCN2CCOCC2)nc(-c2ccc(NC(=O)Nc3ccccc3)cc2)nc1N1CCOCC1 85
CSc1c(Cl)nc(-c2ccc(NC(=O)Nc3ccc(N4CCOCC4)cn3)cc2)nc1N1CCOCC1 85
CCOC(=O)c1ccc(NC(=O)Nc2ccc(-c3nc(Cl)c(SC)c(N4CCOCC4)n3)cc2)cc1 85
CSc1cnc(-c2ccc(NC(=O)Nc3ccc(F)c(F)c3)cc2)nc1N1CCOCC1 84

Query string: Look up inhibition at 10 µM: `CSc1c(Cl)nc(-c2ccc(NC(=O)Nc3ccc(N)cc3)cc2)nc1N1CCOCC1`
Result string: 97

Query string: Which inhibition at 10 µM reading was recorded for the compound `CCOC(=O)c1nc(-c2ccc(NC(=O)Nc3ccc(OCCN(C)C)cc3)cc2)nc(N2CCOCC2)c1OCC` ?
Result string: 93

Query string: Consider the compound shown here: `CCOc1c(C(=O)N2CCN(C)CC2)nc(-c2ccc(NC(=O)Nc3ccccc3)cc2)nc1N1CCOCC1` What is its recorded inhibition at 10 µM?
Result string: 96

Query string: For the compound shown here, `CCOC(=O)c1nc(-c2ccc(NC(=O)NC(C)C)cc2)nc(N2CCOCC2)c1OCC` , give the reported inhibition at 10 µM.
Result string: 85

Query string: Suppose we examine the compound `COc1cnc(-c2ccc(NC(=S)Nc3ccc(F)cc3)cc2)nc1N1CCOCC1` ; what inhibition at 10 µM value has been reported?
Result string: 89

Query string: Request the reported inhibition at 10 µM associated with `CSc1cnc(-c2ccc(NC(=O)Nc3ccc(N4CCN(S(C)(=O)=O)CC4)cc3)cc2)nc1N1CCOCC1`
Result string: 86

Query string: Request the reported inhibition at 10 µM associated with `CSc1cnc(-c2ccc(NC(=O)Nc3ccc(OCCN(C)C)cc3)cc2)nc1N1CCOCC1`
Result string: 92

###

test_system: PI3K (p110α/p85α) (Homo sapiens (Human))
assay_overview: PI3K HTRF enzyme assay, p110α/p85α
Format: biochemical
protocol_conditions: read-out: % inhibition @ 500 nM p110α; compound at 500 nM, 10 μM ATP
property_name: inhibition at 0.5 µM

compound	inhibition at 0.5 µM
CCOc1c(C(=O)N2CCOCC2)nc(-c2ccc(NC(=O)Nc3ccccc3)cc2)nc1N1CCOCC1 [MTR-0124]	49.1%
CCOc1cnc(-c2ccc(NC(=O)Nc3ccc(N4CCOCC4=O)cc3)cc2)nc1-c1ccncc1 [MTR-0398]	47%
COc1cnc(-c2ccc(NC(=O)Nc3cccnc3)cc2)nc1N1CCOCC1 [MTR-0228]	74.4%
COc1cnc(-c2ccc(NC(=O)Nc3cccc(F)c3)cc2)nc1N1CCOCC1 [MTR-0164]	84.7%
CCOc1cnc(-c2ccc(NC(=O)Nc3ccc(C(N)=O)cc3)cc2)nc1N1CCOCC1 [MTR-0323]	90.8%

Query string: Endpoint output: inhibition at 0.5 µM of CSc1cnc(-c2ccc(NC(=O)Nc3ccc(C(N)=O)cc3)cc2)nc1N1CCOCC1 [MTR-0267] . Value?
Result string: 83.7%

Query string: Given CSc1cnc(-c2ccc(NC(=O)Nc3cccnc3)cc2)nc1N1CCOCC1 [MTR-0225] , state its recorded inhibition at 0.5 µM.
Result string: 43.8%

Query string: Which inhibition at 0.5 µM value is on record for CCOc1c(CN2CCN(S(C)(=O)=O)CC2)nc(-c2ccc(NC(=O)Nc3ccccc3)cc2)nc1N1CCOCC1 [MTR-0169] ?
Result string: 52.7%

Query string: Could you tell me which inhibition at 0.5 µM is on file for COc1cnc(-c2ccc(NC(=O)Nc3ccc(C(N)=O)cc3)cc2F)nc1N1CCOCC1 [MTR-0407] ?
Result string: 63.4%

Query string: Look at this compound and give its reported inhibition at 0.5 µM. CSc1c(Cl)nc(-c2ccc(NC(=O)Nc3ccc(N4CCN(C)CC4)nc3)cc2)nc1N1CCOCC1 [MTR-0236]
Result string: 61.2%

Query string: Which measured inhibition at 0.5 µM value corresponds to CSc1cnc(-c2ccc(NC(=O)Nc3ccc(C(=O)O)cc3)cc2)nc1N1CCOCC1 [MTR-0316] ?
Result string: 55.9%

###

test_system: PI3K (p110α/p85α) (Homo sapiens (Human), UniProt P42336)
Sequence (P42336 whole entry, species assumed): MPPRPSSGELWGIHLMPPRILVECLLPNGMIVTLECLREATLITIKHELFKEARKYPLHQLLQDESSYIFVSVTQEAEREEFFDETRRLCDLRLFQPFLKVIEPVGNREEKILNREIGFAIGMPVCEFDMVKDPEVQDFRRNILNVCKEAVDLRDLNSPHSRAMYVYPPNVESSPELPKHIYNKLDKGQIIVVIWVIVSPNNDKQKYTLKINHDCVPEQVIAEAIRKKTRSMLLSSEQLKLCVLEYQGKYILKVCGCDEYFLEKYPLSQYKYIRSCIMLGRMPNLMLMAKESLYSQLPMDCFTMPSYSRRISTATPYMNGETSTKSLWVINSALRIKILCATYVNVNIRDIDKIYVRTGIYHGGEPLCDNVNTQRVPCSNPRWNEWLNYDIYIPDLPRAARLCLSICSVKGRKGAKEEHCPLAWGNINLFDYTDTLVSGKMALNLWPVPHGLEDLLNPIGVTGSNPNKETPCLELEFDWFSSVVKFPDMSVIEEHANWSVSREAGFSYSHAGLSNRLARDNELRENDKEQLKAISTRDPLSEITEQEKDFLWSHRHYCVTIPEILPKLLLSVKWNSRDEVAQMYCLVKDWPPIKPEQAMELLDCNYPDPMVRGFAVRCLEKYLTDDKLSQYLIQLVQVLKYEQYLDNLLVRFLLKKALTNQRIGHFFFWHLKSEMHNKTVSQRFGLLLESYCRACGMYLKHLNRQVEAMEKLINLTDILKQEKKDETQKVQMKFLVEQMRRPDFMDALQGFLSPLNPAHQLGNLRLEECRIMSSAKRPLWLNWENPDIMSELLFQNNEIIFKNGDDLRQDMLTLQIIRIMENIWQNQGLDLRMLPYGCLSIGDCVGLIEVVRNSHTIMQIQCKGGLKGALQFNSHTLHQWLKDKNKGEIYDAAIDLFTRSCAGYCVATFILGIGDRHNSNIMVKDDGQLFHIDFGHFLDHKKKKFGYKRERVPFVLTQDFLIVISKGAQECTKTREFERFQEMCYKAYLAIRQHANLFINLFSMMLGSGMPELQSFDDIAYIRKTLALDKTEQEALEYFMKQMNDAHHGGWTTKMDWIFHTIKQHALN
Sequence (P27986 whole entry partner, species assumed): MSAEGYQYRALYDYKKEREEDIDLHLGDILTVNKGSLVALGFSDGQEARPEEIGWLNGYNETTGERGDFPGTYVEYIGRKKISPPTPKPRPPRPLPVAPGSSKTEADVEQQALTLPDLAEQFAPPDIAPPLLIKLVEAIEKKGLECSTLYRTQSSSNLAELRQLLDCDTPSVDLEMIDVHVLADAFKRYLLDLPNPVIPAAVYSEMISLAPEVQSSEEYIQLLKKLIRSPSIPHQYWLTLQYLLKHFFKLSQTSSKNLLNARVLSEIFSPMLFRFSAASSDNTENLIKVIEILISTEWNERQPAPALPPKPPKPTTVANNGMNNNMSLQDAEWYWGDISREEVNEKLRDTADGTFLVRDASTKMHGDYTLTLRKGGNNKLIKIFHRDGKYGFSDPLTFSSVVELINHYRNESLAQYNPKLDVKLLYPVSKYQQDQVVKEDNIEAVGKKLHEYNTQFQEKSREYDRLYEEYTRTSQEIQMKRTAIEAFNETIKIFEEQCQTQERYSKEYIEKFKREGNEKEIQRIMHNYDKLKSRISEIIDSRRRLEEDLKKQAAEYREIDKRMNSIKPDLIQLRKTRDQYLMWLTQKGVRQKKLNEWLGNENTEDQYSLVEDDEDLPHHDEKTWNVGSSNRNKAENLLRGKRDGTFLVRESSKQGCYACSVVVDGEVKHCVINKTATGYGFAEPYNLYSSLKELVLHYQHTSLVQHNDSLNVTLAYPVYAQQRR
assay_overview: PI3K HTRF enzyme assay, p110α/p85α
Assay type: biochemical
protocol_conditions: read-out: % inhibition @ 500 nM p110α; compound at 500 nM, 10 μM ATP
Each entry below carries its reported inhibition at 0.5 µM.
Give the quantity in %, number only.

Recorded inhibition at 0.5 µM, per entry:
COc1cnc(-c2ccc(NC(=O)Nc3ccc(N4CCSCC4)cc3)cc2)nc1N1CCOCC1 56.3
CCOC(=O)c1nc(-c2ccc(NC(=O)Nc3ccc(N4CCOCC4=O)cc3)cc2F)nc(N2CCOCC2)c1OCC 44.2

Query string: inhibition at 0.5 µM for `CCOC(=O)c1nc(-c2ccc(NC(=O)Nc3ccc(C(=O)N4CCN(C)CC4)cc3)cc2)nc(N2CCOCC2)c1OCC` ?
Result string: 59

Query string: Look up inhibition at 0.5 µM for this compound: `CSc1cnc(-c2ccc(NC(=O)Nc3ccc(N4CCOCC4=O)cc3)cc2)nc1N1CCOCC1`
Result string: 87

Query string: So what does the record say about inhibition at 0.5 µM for `COc1cnc(-c2ccc(NC(=S)Nc3cccc(F)c3)cc2)nc1N1CCOCC1` ?
Result string: 65

###

test_system: recombinant mTOR (Homo sapiens (Human), UniProt P42345)
Sequence (P42345 1360-2549): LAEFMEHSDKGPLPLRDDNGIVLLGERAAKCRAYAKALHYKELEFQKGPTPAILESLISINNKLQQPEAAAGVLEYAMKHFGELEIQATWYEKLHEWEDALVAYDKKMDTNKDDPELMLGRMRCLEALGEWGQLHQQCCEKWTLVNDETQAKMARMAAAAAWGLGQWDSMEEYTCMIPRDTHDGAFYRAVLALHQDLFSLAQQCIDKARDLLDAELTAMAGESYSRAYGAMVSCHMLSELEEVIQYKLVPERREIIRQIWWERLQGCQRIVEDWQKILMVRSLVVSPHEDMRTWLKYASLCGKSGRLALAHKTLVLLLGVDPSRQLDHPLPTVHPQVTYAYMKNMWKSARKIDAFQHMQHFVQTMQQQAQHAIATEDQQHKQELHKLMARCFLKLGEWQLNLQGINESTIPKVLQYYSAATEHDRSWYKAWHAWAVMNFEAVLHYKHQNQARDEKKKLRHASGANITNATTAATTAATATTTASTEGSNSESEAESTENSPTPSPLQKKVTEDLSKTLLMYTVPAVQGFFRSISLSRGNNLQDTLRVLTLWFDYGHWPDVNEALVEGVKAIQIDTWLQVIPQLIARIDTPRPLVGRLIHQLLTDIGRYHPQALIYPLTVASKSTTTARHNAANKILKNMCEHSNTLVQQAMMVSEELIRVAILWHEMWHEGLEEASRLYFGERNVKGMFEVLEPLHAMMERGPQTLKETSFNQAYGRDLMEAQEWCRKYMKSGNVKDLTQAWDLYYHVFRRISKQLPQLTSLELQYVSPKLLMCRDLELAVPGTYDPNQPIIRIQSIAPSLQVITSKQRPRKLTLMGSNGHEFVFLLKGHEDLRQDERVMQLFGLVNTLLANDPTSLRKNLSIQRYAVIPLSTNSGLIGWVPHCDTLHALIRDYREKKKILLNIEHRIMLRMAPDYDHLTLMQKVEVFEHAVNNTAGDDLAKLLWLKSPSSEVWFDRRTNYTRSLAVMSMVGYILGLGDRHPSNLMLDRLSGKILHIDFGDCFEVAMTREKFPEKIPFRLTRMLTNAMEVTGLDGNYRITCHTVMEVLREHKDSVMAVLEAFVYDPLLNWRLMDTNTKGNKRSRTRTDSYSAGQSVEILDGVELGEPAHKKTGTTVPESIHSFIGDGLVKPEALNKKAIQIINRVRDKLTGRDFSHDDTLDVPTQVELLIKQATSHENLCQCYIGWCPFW
assay_overview: mTOR kinase assay (33P incorporation into 4EBP1)
Assay type: biochemical
protocol_conditions: compound at 10 μM, 10 μM ATP
property_name: inhibition at 10 µM (%)
Use % as the unit, but write only the number.

Query string: # input compound: `CSc1c(Cl)nc(-c2ccc(NC(=O)Nc3ccc4c(c3)OCO4)cc2)nc1N1CCOCC1` ; wanted: its inhibition at 10 µM
Result string: 90

Query string: Quick one: inhibition at 10 µM of `COc1cnc(-c2ccc(NC(=S)Nc3ccc(N4CCOCC4=O)cc3)cc2)nc1N1CCOCC1` ?
Result string: 89

Query string: I would be grateful if you could share the reported inhibition at 10 µM for `CCOC(=O)c1nc(-c2ccc(NC(=O)Nc3ccc(C(N)=O)cc3)c(F)c2)nc(N2CCOCC2)c1OCC` .
Result string: 92

###

Entries and their measured inhibition at 0.5 µM follow.
test_system: PI3K (p110α/p85α) (Homo sapiens (Human), UniProt P42336)
assay_overview: PI3K HTRF enzyme assay, p110α/p85α
Format: biochemical
protocol_conditions: read-out: % inhibition @ 500 nM p110α; compound at 500 nM, 10 μM ATP
Use % as the unit, but write only the number.

Would you please look over these solved cases?
CSc1c(Cl)nc(-c2ccc(NC(=O)Nc3ccc(C(=O)N4CCC(N(C)C)CC4)cc3)cc2)nc1N1CCOCC1 71.5
CSc1c(Cl)nc(-c2ccc(N)nc2)nc1N1CCOCC1 70

Query string: Requested field: inhibition at 0.5 µM. Item: `COc1cnc(-c2ccc(NC(=O)Nc3cccc(NC(C)=O)c3)cc2)nc1N1CCOCC1`
Result string: 58.4

Query string: Any idea what inhibition at 0.5 µM was measured for `CCOc1cnc(-c2ccc(NC(=O)Nc3ccc(NS(C)(=O)=O)cc3)cc2)nc1N1CCOCC1` ?
Result string: 70.5

Query string: Name the recorded inhibition at 0.5 µM for `CSc1c(-c2ccncc2)nc(-c2ccc(NC(=O)Nc3ccc(C(N)=O)cc3)cc2)nc1N1CCOCC1` .
Result string: 46.6

Query string: Entry `CSc1cnc(-c2ccc(NC(=O)Nc3ccc(N4CCOCC4)cc3)cc2)nc1N1CCOCC1` has what inhibition at 0.5 µM?
Result string: 45.8

###

test_system: recombinant mTOR (Homo sapiens (Human))
assay_overview: mTOR kinase assay (33P incorporation into 4EBP1)
Assay type: biochemical
protocol_conditions: compound at 10 μM, 10 μM ATP
Readings of inhibition at 10 µM for the listed compounds
# number only, unit % dropped from output

compound	inhibition at 10 µM, %
CCOC(=O)c1nc(-c2ccc(NC(=O)Nc3ccc(N4CCN(S(C)(=O)=O)CC4)cc3)cc2)nc(N2CCOCC2)c1OCC [MTR-0419]	82
COc1cnc(-c2ccc(NC(=O)Nc3ccc(N4CCN(C)CC4)nc3)cc2)nc1N1CCOCC1 [MTR-0338]	94
CSc1c(Cl)nc(-c2ccc(N)nc2)nc1N1CCOCC1 [MTR-0133]	93
CSc1c(Cl)nc(-c2ccc(NC(=O)Nc3ccc(S(N)(=O)=O)cc3)c(F)c2)nc1N1CCOCC1 [MTR-0410]	85
CCOC(=O)c1nc(-c2cnc(NC(=O)Nc3ccc(N4CCOCC4=O)cc3)nc2)nc(N2CCOCC2)c1OCC [MTR-0403]	88
CCOC(=O)c1nc(-c2ccc(NC(=O)Nc3ccc4c(c3)OCO4)cc2)nc(N2CCOCC2)c1OCC [MTR-0361]	95

Query string: Which inhibition at 10 µM is reported with recombinant mTOR (Homo sapiens (Human)) for this entry: CSc1cnc(-c2ccc(NC(=O)Nc3ccc(F)cc3)cc2)nc1N1CCOCC1 [MTR-0178] ?
Result string: 90

Query string: Recorded inhibition at 10 µM for CSc1c(Cl)nc(-c2ccc(O)cc2)nc1N1CCOCC1 [MTR-0098] with recombinant mTOR (Homo sapiens (Human)), please?
Result string: 86

Query string: Which inhibition at 10 µM is reported with recombinant mTOR (Homo sapiens (Human)) for this entry: COc1ccc(NC(=O)Nc2ccc(-c3ncc(OC)c(N4CCOCC4)n3)cc2)cc1OC [MTR-0239] ?
Result string: 89

Query string: Form: Entry = COc1cnc(-c2ccc(NC(=O)Nc3ccc(N)cc3)cc2)nc1N1CCOCC1 [MTR-0350] | System = recombinant mTOR (Homo sapiens (Human)) | inhibition at 10 µM = ____
Result string: 95

Query string: Any idea what inhibition at 10 µM came out for CCOC(=O)c1nc(-c2ccc(NC(=O)Nc3ccc(N4CCN(C)CC4)nc3)cc2)nc(N2CCOCC2)c1OCC [MTR-0275] on recombinant mTOR (Homo sapiens (Human))?
Result string: 97

Query string: Recall the recorded inhibition at 10 µM for CSc1c(Cl)nc(-c2ccc(NC(=O)Nc3nccs3)cc2)nc1N1CCOCC1 [MTR-0200] with recombinant mTOR (Homo sapiens (Human)) and state it.
Result string: 84

Measured values drawn from patent US9315491B2 for this set.
